target_system: Dipeptidyl peptidase 4 (Homo sapiens)
Sequence (P27487 whole entry): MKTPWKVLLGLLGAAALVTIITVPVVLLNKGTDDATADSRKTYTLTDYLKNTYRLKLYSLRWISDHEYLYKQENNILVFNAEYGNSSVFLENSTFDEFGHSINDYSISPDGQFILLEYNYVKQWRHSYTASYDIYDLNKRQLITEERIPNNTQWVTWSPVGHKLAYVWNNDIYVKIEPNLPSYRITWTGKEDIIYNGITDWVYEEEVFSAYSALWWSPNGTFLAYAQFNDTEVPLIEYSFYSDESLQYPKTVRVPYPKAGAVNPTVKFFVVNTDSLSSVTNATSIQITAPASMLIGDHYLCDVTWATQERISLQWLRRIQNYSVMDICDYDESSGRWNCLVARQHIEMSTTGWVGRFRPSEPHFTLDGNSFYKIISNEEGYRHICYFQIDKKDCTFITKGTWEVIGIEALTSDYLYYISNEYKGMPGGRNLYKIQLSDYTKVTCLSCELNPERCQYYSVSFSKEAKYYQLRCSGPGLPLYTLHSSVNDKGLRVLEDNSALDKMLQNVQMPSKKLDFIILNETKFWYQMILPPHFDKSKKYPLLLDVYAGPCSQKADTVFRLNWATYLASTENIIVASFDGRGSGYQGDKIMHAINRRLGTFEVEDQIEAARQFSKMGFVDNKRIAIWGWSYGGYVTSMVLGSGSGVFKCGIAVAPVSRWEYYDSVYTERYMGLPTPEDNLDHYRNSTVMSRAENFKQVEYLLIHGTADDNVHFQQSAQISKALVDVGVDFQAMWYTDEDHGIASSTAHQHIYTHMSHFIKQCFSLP
assay_protocol: Human DPPIV plasma binding (0% plasma)
Format: cell-free
value_kind: pKi
# pKi = -log10(concentration in molar units)

Ask: I am curious: what pKi value has been reported for Cn1c(=O)c2c(nc(N3CCCC(N)C3)n2Cc2ccccc2C#N)n(C)c1=O (stereo unspecified) ?
Reply: 8.70

###

target_system: Dipeptidyl peptidase 4 (Homo sapiens)
value_kind: pIC50
Bear in mind: pIC50 is minus log10 of a mol/L concentration; give just that figure.

Ask: Provide value of pIC50 for this record tested with Dipeptidyl peptidase 4 (Homo sapiens): CN1C(=O)C=C(N2CCC[C@@H](N)C2)C(Cc2ccccc2C#N)C1=O (stereo partly specified)
Reply: 8.40
